- Tested on: Influenza A virus H3N2
- protocol: Antiviral activity against IInfluenza A virus H3N2 A/HK/7/87 infected in MDCK cells after 4 days by MTS assay
- Format: functional, organism-based
- conditionSummary: A/HK/7/87, MDCK, 96 h
pEC50: −log10 of the molar value.
attributeMeasured: pEC50

Cc1c(C(=O)NN2C(=O)CSC23CCCC(C)C3)[nH]c2ccc(Cl)cc12 (centres undefined) : < 4.00
CCC1CCC2(CC1)SCC(=O)N2NC(=O)c1[nH]c2ccc(Cl)cc2c1C (centres undefined) : < 4.00

Task item: Please look at CCCC1CCC2(CC1)SCC(=O)N2NC(=O)c1[nH]c2ccc(Cl)cc2c1C (centres undefined) and tell me its recorded pEC50 on Influenza A virus H3N2.
Reply: < 4.00

Task item: Look up Influenza A virus H3N2 data: pEC50 of CCC1CCC2(CC1)SC(C)C(=O)N2NC(=O)c1[nH]c2ccc(Cl)cc2c1C (centres undefined) , then report it.
Reply: 9.11
